target: alkaline phosphatase (Bos taurus, UniProt P19111); assay: Chemiluminescent signal and signal:background with enhancer polymers (Example XVII); format: biochemical; settings: polymer DAA TMQ; time 0 (background, before enzyme)
Sequence (P19111 20-506 limits assumed): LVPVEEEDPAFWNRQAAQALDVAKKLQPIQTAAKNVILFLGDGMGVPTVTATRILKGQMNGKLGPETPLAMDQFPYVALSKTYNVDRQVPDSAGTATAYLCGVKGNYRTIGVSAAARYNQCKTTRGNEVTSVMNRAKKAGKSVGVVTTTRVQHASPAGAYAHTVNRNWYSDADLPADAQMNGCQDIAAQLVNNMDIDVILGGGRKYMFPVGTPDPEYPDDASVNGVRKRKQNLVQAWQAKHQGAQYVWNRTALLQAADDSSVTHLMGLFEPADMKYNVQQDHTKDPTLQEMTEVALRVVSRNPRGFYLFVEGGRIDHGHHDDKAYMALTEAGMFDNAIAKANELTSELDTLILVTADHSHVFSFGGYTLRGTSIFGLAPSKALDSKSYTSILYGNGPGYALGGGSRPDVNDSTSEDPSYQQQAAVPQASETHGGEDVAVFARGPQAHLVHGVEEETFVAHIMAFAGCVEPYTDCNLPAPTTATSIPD
SIGNAL listing for selected compounds.
parameter: SIGNAL

- compound: "COC1(c2cccc(OP(=O)(O)O)c2)OOC12C1CC3CC2CC(Cl)(C3)C1 (stereo not shown)"
  endpoint_result: 82.6
- compound: "COC1(c2cccc(OP(=O)(O)O)c2)OOC12C1CC3CC2CC(O)(C3)C1 (single isomer, unassigned) [B-OH-AMPPD]"
  endpoint_result: 136.0
- compound: "COC1(c2cccc(OP(=O)(O)O)c2)OOC12C1CC3CC(C1)CC2C3 (stereo not shown) [AMPPD, reference compound]"
  endpoint_result: 180.0
- compound: "COC1(c2cccc(OP(=O)(O)O)c2)OOC12C1CC3CC2CC(O)(C3)C1 (single isomer, unassigned) [A-OH-AMPPD]"
  endpoint_result: 90.5

###

// reported SIGNAL for each item listed
molecular target: alkaline phosphatase (Bos taurus, UniProt P19111); assay: Chemiluminescent signal and signal:background with enhancer polymers (Example XVII); type: biochemical; conditions: polymer DMQ TEQ; 20 min
parameter: SIGNAL

- molecule: "COC1(c2cccc(OP(=O)(O)O)c2)OOC12C1CC3CC2CC(O)(C3)C1 (single isomer, unassigned) [A-OH-AMPPD]"
  parameter: "SIGNAL"
  endpoint_result: 20702.2
- molecule: "COC1(c2cccc(OP(=O)(O)O)c2)OOC12C1CC3CC2CC(O)(C3)C1 (single isomer, unassigned) [B-OH-AMPPD]"
  parameter: "SIGNAL"
  endpoint_result: 8288.0
- molecule: "COC1(c2cccc(OP(=O)(O)O)c2)OOC12C1CC3CC2CC(Cl)(C3)C1 (stereo not shown)"
  parameter: "SIGNAL"
  endpoint_result: 57658.0
- molecule: "COC1(c2cccc(OP(=O)(O)O)c2)OOC12C1CC3CC(C1)CC2C3 (stereo not shown) [AMPPD, reference compound]"
  parameter: "SIGNAL"
  endpoint_result: 78977.4

###

Reported S/N values are given for each entry in this list.
Target: alkaline phosphatase (Bos taurus, UniProt P19111)
Test: Chemiluminescent signal and signal:background with enhancer polymers (Example XVII)
Type: biochemical
Details: polymer TEQ; 20 min
Protocol: Four sets of three tubes each, each tube in each set containing 450 μl of a 0.4 mM aqueous solution of one of the four 1,2-dioxetanes being compared in 0.1M diethanolamine containing 1 mM magnesium chloride, 0.02% sodium azide and 0.1% of the enhancer polymer, pH 10.0 (substrate buffer) were prepared and the background signal from each tube measured using a Berthold LB 952T luminometer (Berthold Instruments; Wildbad, Federal Republic of Germany). […]

- compound: "COC1(c2cccc(OP(=O)(O)O)c2)OOC12C1CC3CC(C1)CC2C3 (stereo not shown) [AMPPD, reference compound]"
  S/N: 229.7
- compound: "COC1(c2cccc(OP(=O)(O)O)c2)OOC12C1CC3CC2CC(O)(C3)C1 (single isomer, unassigned) [A-OH-AMPPD]"
  S/N: 54.7
- compound: "COC1(c2cccc(OP(=O)(O)O)c2)OOC12C1CC3CC2CC(O)(C3)C1 (single isomer, unassigned) [B-OH-AMPPD]"
  S/N: 81.1
- compound: "COC1(c2cccc(OP(=O)(O)O)c2)OOC12C1CC3CC2CC(Cl)(C3)C1 (stereo not shown)"
  S/N: 513.5
